Measured TGI, listed per entry for reference.
Test system: M14 melanoma
assayName: NCI tumour cell line growth inhibition, 48 h
*1 amine or outer side, *2 acyl side, *3 side chain or, on linkers, in order; H or OH if unused. Where a SMILES comes first, the peptide text is derived from it. Bridges are numbered along the chain shown (N, C = ends). [ ]: non-standard residue; d: D form. The star is where a group is joined. Phe(3,5-F2) = N[C@@H](Cc1cc(F)cc(F)c1)C(=O)O; Pro(4R-Me) = C[C@H]1CN[C@H](C(=O)O)C1; aThr = C[C@H](O)[C@H](N)C(=O)O; Pip = O=C(O)[C@@H]1CCCCN1; X10 = Fc1cc(C2CC2)ccc1N*; Abu = CC[C@H](N)C(=O)O; CO = O=C([*:1])[*:2]

{"columns": ["compound", "TGI"],
 "data": [
  ["Cc1cc(I)cc(CN(C)CCN2CCOCC2)c1O", "> 100 µM"],
  ["O=C1CC2(CCC(O)(c3cccc4ccccc34)C(C(=O)c3cccc4ccccc34)C2)C(=O)c2ccccc2N1 (stereo not drawn)", "> 100 µM"],
  ["CC(=O)Nc1ccc2c(C3=C(c4cn(C)c5ccccc45)C(=O)NC3=O)cn(C)c2c1", "> 25 µM"],
  ["CC[C@@H]1NC(=O)[C@@H]2CCCCN2C(=O)[C@@H]2CCCN2C(=O)[C@@H](NC(=O)[C@H](Cc2cc(F)cc(F)c2)NC(=O)Nc2ccc(C3CC3)cc2F)[C@H](C)OC(=O)[C@@H]2C[C@@H](C)CN2C1=O ({X10-CO}-[Phe(3,5-F2)][aThr]P[Pip][Abu][Pro(4R-Me)]; ester 2-C)", "1.86 µM"],
  ["O=[N+]([O-])c1nccn1COCCI", "> 100 µM"],
  ["COc1cc(NC(=O)c2ccc(C(F)(F)F)nc2Nc2cc(Cl)ccc2C)cc(OC)c1OC", "20.8 µM"],
  ["COC(=S)OC1CC(n2cnc3c(=O)[nH]cnc32)OC1CO[Si](C)(C)C(C)(C)C (stereo not drawn)", "> 100 µM"],
  ["CC(C)(C)OC(=O)NCCCCCCC(=O)Cc1ccccc1", "> 100 µM"]
]}
